- measurementTarget: histone acetyltransferase p300 (Homo sapiens, UniProt Q09472)
- Sequence (Q09472 1284-1673 limits assumed): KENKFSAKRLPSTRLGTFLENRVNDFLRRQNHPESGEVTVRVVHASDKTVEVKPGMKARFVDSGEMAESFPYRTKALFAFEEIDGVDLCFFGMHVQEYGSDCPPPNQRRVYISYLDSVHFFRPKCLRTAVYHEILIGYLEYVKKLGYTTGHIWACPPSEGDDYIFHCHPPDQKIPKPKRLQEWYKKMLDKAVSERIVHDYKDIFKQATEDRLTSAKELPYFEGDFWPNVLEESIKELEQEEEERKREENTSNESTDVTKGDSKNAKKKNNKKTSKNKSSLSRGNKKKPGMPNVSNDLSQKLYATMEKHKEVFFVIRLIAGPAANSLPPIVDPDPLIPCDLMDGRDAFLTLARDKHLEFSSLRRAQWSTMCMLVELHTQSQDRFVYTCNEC
pIC50: −log10 of the molar value.
Classify as follows. Reported pIC50 greater than or equal to 8: label 1. Reported pIC50 below: label 0.

Answered cases to consult:
compound	measurementTarget	cat
CNC(=O)Nc1ccc2c(c1)CC[C@@]21OC(=O)N(CC(=O)N2Cc3ccccc3CC[C@H]2C2CC2)C1=O	histone acetyltransferase p300 (Homo sapiens, UniProt Q09472)	label 1
CNC(=O)Nc1ccc2c(c1)CC[C@@]21OC(=O)N(CC(=O)N2Cc3ccsc3CC[C@H]2C2CC2)C1=O	histone acetyltransferase p300 (Homo sapiens, UniProt Q09472)	label 1
CNC(=O)Cn1cc(-c2ccc3c(c2)CCC32NC(=O)N(CC(=O)N3Cc4ccc(F)cc4CC[C@@H]3C3CC3)C2=O)cn1 (some centres unmarked)	histone acetyltransferase p300 (Homo sapiens, UniProt Q09472)	label 0
CNC(=O)Nc1ccc2c(c1)CC[C@]21OC(=O)N(CC(=O)N2Cc3cc(F)ccc3OC[C@@H]2C2CC2)C1=O	histone acetyltransferase p300 (Homo sapiens, UniProt Q09472)	label 0
CNC(=O)Nc1ccc2c(c1)CC[C@@]21OC(=O)N(CC(=O)N2Cc3ccccc3CC[C@H]2C(C)C)C1=O	histone acetyltransferase p300 (Homo sapiens, UniProt Q09472)	label 1

Can "CNC(=O)Nc1ccc2c(c1)CC[C@@]21OC(=O)N(CC(=O)N2Cc3cc(F)ccc3OC[C@@H]2C2CC2)C1=O" be said to have pIC50 at or above 8?
label 0

Record "CNC(=O)Nc1ccc2c(c1)CC[C@]21OC(=O)N(CC(=O)N2Cc3ccccc3CC[C@H]2C(C)C)C1=O" ; criterion: pIC50 no lower than 8. Met?
label 1

Hi, just wondering whether "CNC(=O)Nc1ccc2c(c1)CC[C@]21OC(=O)N(CC(=O)N2Cc3ccccc3CC[C@@H]2C2CC2)C1=O" shows pIC50 of 8 or higher.
label 0

API: above_or_equal(metric=pIC50, cutoff=8) for item "CNC(=O)Nc1ccc2c(c1)CC[C@]21OC(=O)N(CC(=O)N2Cc3ccccc3CC[C@@H]2C(C)C)C1=O"
label 0

###

Entries below carry reported log10 IC50 on histone acetyltransferase p300 (Homo sapiens).
Scale type: logarithmic (base 10). Underlying IC50 unit: µM.

compound	measurementTarget	log10 IC50
CNC(=O)Nc1ccc2c(c1)CC[C@@]21OC(=O)N(CC(=O)N2Cc3ccc(F)cc3CC[C@@H]2C(F)(F)F)C1=O	histone acetyltransferase p300 (Homo sapiens)	-1.43
NC1(C(=O)Nc2ccc3c(c2)CC[C@]32OC(=O)N(CC(=O)N3Cc4ccc(F)cc4CC[C@@H]3C3CC3)C2=O)CC1	histone acetyltransferase p300 (Homo sapiens)	-0.74
CNC(=O)Nc1ccc2c(c1)CC[C@@]21OC(=O)N(CC(=O)N2Cc3ncccc3CC[C@H]2C2CC2)C1=O	histone acetyltransferase p300 (Homo sapiens)	-2.13

Quick batch: log10 IC50 for everything below.
1. CNC(=O)Nc1ccc2c(c1)CC[C@@]21OC(=O)N(CC(=O)N2Cc3cc(F)ccc3OC[C@H]2C(F)(F)F)C1=O
2. CNC(=O)Nc1ccc2c(c1)CC[C@@]21OC(=O)N(CC(=O)N2Cc3ccc(F)cc3CC[C@H]2C2CC2)C1=O
3. CNC(=O)Nc1ccc2c(c1)CCC21NC(=O)N(CC(=O)N2Cc3ccc(F)cc3CC[C@H]2C2CC2)C1=O (stereo partly shown)
4. CCC[C@H]1CCc2ccccc2CN1C(=O)CN1C(=O)O[C@]2(CCc3cc(NC(=O)NC)ccc32)C1=O
5. CNC(=O)Nc1ccc2c(c1)CC[C@@]21OC(=O)N(CC(=O)N2Cc3ccccc3OC[C@H]2C)C1=O
6. NC1(C(=O)Nc2ccc3c(c2)CC[C@]32OC(=O)N(CC(=O)N3Cc4ccc(F)cc4CC[C@H]3C3CC3)C2=O)CCC1
7. CNC(=O)Nc1ccc2c(c1)CC[C@]21OC(=O)N(CC(=O)N2Cc3ccc(F)cc3CC[C@@H]2C2CC2)C1=O
8. CNC(=O)Nc1ccc2c(c1)CC[C@]21OC(=O)N(CC(=O)N2Cc3ccsc3CC[C@H]2C2CC2)C1=O

[-2.62, -2.96, -2.32, -1.33, -1.92, -2.72, -1.66, -1.86]

Provide the reported log10 IC50 of each entry below, same order.
1. CNC(=O)Nc1ccc2c(c1)CC[C@@]21OC(=O)N(CC(=O)N2Cc3ccccc3CC[C@H]2C)C1=O
2. CNC(=O)Nc1ccc2c(c1)CC[C@@]21OC(=O)N(CC(=O)N2Cc3ccccc3CC[C@@H]2C(F)(F)F)C1=O
3. CCC[C@@H]1CCc2ccccc2CN1C(=O)CN1C(=O)O[C@]2(CCc3cc(NC(=O)NC)ccc32)C1=O
4. Cn1cc(-c2ccc3c(c2)CC[C@@]32OC(=O)N(CC(=O)N3Cc4ccc(F)cc4CC[C@H]3C3CC3)C2=O)cn1
5. CNC(=O)Nc1ccc2c(c1)CC[C@]21OC(=O)N(CC(=O)N2Cc3ccc(F)cc3CC[C@@H]2C)C1=O
6. NC1(C(=O)Nc2ccc3c(c2)CC[C@@]32OC(=O)N(CC(=O)N3Cc4ccc(F)cc4CC[C@@H]3C3CC3)C2=O)CCC1
7. CNC(=O)Nc1ccc2c(c1)CC[C@@]21OC(=O)N(CC(=O)N2Cc3ccc(F)cc3CC[C@H]2C(F)(F)F)C1=O
8. CNC(=O)Nc1ccc2c(c1)CC[C@]21OC(=O)N(CC(=O)N2Cc3cc(F)c(F)cc3CC[C@H]2C2CC2)C1=O

1: -2.43; 2: -1.26; 3: -2.40; 4: -2.47; 5: -1.27; 6: -0.80; 7: -2.72; 8: -2.86

###

Provide the reported pIC50 of each item.
- measurementTarget: histone acetyltransferase p300 (Homo sapiens)
- Construct: purchased BPS Corporation 50071
- testName: Histone acetyltransferase (p300) activity assay (radioisotope, [3H]-Ac-CoA)
- Type: biochemical
- runParameters: p300 0.05 nM; histone peptide 600 nM, [3H]-Ac-CoA 250 nM; 60 min at room temperature; read-out: Inhibition rate IC50
pIC50: −log10 of the molar value.

Recorded pIC50, per entry:
molecule	pIC50
Cn1cc(-c2ccc3c(c2)OCC32NC(=O)N(CC(=O)N3Cc4cc(F)ccc4OC[C@H]3C3CC3)C2=O)cn1 (stereo partly shown)	> 8.00
CNC(=O)Nc1ccc2c(c1)CC[C@@]21OC(=O)N(CC(=O)N2Cc3ccccc3CC[C@@H]2C(C)C)C1=O	7.35
Cn1cc(-c2ccc3c(c2)CCC32OC(=O)N(CC(=O)N3Cc4sccc4OC[C@H]3C(F)(F)F)C2=O)cn1 (stereo partly shown)	> 7.30

Give pIC50 for each of the items listed below.
1. CNC(=O)Nc1ccc2c(c1)CCC21NC(=O)N(CC(=O)N2Cc3ccsc3OC[C@H]2C2CC2)C1=O (stereo partly shown)
2. CNC(=O)Nc1ccc2c(c1)CC[C@]21OC(=O)N(CC(=O)N2Cc3sc(C)c(C)c3CC[C@H]2C2CC2)C1=O
3. Cn1cc(-c2ccc3c(n2)CCC32NC(=O)N(CC(=O)N3Cc4cc(F)ccc4OC[C@H]3C(F)(F)F)C2=O)cn1 (stereo partly shown)
4. Cn1cc(-c2ccc3c(c2)C(O)C[C@]32NC(=O)N(CC(=O)N3Cc4cc(F)ccc4OC[C@H]3C3CC3)C2=O)cn1 (stereo partly shown)

1. > 8.00
2. 6.85
3. > 7.70
4. > 7.70

###

Give pIC50 for every item shown.
- System: Human castration resistant prostate cancer cell line LNCaP clone FGC
- testName: Cell growth inhibition experiment (CellTiter-Glo), LNCaP clone FGC
- Type: cell-based
- runParameters: Homo sapiens, 120 h, LNCaP clone FGC cells treated with the compound for 5 days
- From the text: […]
Give bare numbers, as −log10 of the molar value.

# annotated cases, reported pIC50 shown
compound	pIC50
CCC[C@@H]1CCc2ccccc2CN1C(=O)CN1C(=O)O[C@]2(CCc3cc(NC(=O)NC)ccc32)C1=O [SYY-B023-1]	7.19
CNC(=O)Nc1ccc2c(c1)CC[C@@]21OC(=O)N(CC(=O)N2Cc3ccccc3CC[C@H]2C)C1=O [SYY-B015-2]	7.82

Answer for every listed entry: what is its pIC50? The entries follow.
1. CNC(=O)Nc1ccc2c(c1)CC[C@]21OC(=O)N(CC(=O)N2Cc3ccc(F)cc3CC[C@H]2C2CC2)C1=O [SYY-B025-1]
2. CNC(=O)Nc1ccc2c(c1)CC[C@]21OC(=O)N(CC(=O)N2Cc3cc(F)ccc3OC[C@H]2C2CC2)C1=O [SYY-B029-1]
3. CNC(=O)Nc1ccc2c(c1)CC[C@@]21OC(=O)N(CC(=O)N2Cc3ccccc3CC[C@H]2C(C)C)C1=O [SYY-B019-2]
4. CNC(=O)Nc1ccc2c(c1)CCC21OC(=O)N(CC(=O)N2Cc3ccccc3CCC2C)C1=O (centres unmarked) [SYY-B003]
5. CNC(=O)Nc1ccc2c(c1)CC[C@@]21OC(=O)N(CC(=O)N2Cc3ccc(F)cc3CC[C@H]2C)C1=O [SYY-B021-2]
6. NC1(C(=O)Nc2ccc3c(c2)CC[C@@]32OC(=O)N(CC(=O)N3Cc4ccc(F)cc4CC[C@H]3C3CC3)C2=O)CCC1 [SYY-B039-2]

1: 7.17; 2: 7.09; 3: 8.05; 4: 6.79; 5: 7.89; 6: 7.82
